Just for reference, patent US20260226086A1 is where these values come from.

For each of the compounds below, state its IC50.
- System: SUP-M2 cells
- assay.procedure: CellTiter-Glo 2.0 cell viability assay, SUP-M2
- Type: cell-based
- experimental.conditions: SUP-M2, 96 h, 4 days
- Experimental: For example, cell viability may be determined by CellTiter-Glo 2.0 Cell Viability Assay. […] At the end of treatment, CellTiter-Glo 2.0 is added to the wells and luminescence is acquired on TECAN SPARK plate reader. […] IC50 values are calculated using a nonlinear regression analysis of the mean±SD from triplicate. SU-DHL-1 and SUP-M2 cell viability was determined by CellTiter-Glo 2.0 Cell Viability Assay (Promega). […]

Illustrative cases are given below, each with its answer.
1. CCS(=O)(=O)c1ccc(CNC(=O)[C@H](CCC(N)=O)NC(=O)[C@@H]2CC[C@@H]3CCN(C(=O)CCCCc4cn([C@H](C(=O)N5C[C@H](O)C[C@H]5C(=O)N[C@@H](CCN5CCOCC5)c5ccc(-c6scnc6C)cc5)C(C)(C)C)nn4)C[C@H](NC(=O)c4cc5cc(C(=O)P(=O)(O)O)ccc5[nH]4)C(=O)N32)cc1 [Compound 17]: 100 to 1000 nM
2. Cc1ncsc1-c1ccc([C@H](C)NC(=O)[C@@H]2C[C@@H](O)CN2C(=O)[C@@H](NC(=O)CCCCCCC(=O)N2CC[C@H]3CC[C@@H](C(=O)N[C@@H](CCC(N)=O)C(=O)NC(c4ccccc4)c4ccccc4)N3C(=O)[C@@H](NC(=O)c3cc4cc(C(=O)P(=O)(O)O)ccc4[nH]3)C2)C(C)(C)C)cc1 [Compound 51]: 100 to 1000 nM
3. CC(=O)N1CC[C@H]2CC[C@@H](C(=O)N[C@@H](CCC(N)=O)COc3cccc(CCCc4cn([C@H](C(=O)N5C[C@H](O)C[C@H]5C(=O)N[C@@H](C)c5ccc(-c6scnc6C)cc5)C5CCN(C6CCOCC6)CC5)nn4)c3Cl)N2C(=O)[C@@H](NC(=O)c2cc3cc(C(=O)P(=O)(O)O)ccc3[nH]2)C1 [Compound 25]: 10 to 100 nM
4. Cc1ncsc1-c1ccc([C@H](C)NC(=O)[C@@H]2C[C@@H](O)CN2C(=O)[C@@H](n2cc(CCCC(=O)N3CC[C@H]4CC[C@@H](C(=O)N[C@@H](CCC(N)=O)C(=O)NC(c5ccccc5)c5ccccc5)N4C(=O)[C@@H](NC(=O)c4cc5cc(C(=O)P(=O)(O)O)ccc5[nH]4)C3)nn2)C(C)(C)C)cc1 [Compound 56]: 100 to 1000 nM
5. COCCOCCOCCOCCN1CC[C@H]2CC[C@@H](C(=O)N[C@@H](CCC(N)=O)COc3cccc(CCCc4cn([C@H](C(=O)N5C[C@H](O)C[C@H]5C(=O)N[C@@H](C)c5ccc(-c6scnc6C)cc5)C(C)(C)C)nn4)c3Cl)N2C(=O)[C@@H](NC(=O)c2cc3cc(C(=O)P(=O)(O)O)ccc3[nH]2)C1 [Compound 31]: 10 to 100 nM

Shifting focus to the compound that follows.
// query IC50 value for entry COCCOCCOC[C@H](NC(=O)[C@@H]1C[C@@H](O)CN1C(=O)[C@@H](n1cc(CCCc2cccc(OC[C@H](CCC(N)=O)NC(=O)[C@@H]3CC[C@@H]4CCN(C(C)=O)C[C@H](NC(=O)c5cc6cc(C(=O)P(=O)(O)O)ccc6[nH]5)C(=O)N43)c2Cl)nn1)C(C)(C)C)c1ccc(-c2scnc2C)cc1 [Compound 41]
10 to 100 nM
